compounds and their reported IC50
# Assay System: ITPKb (Mus musculus)
# Construct: murine ITPKb residues 640-942; MGSDKIHHHHHH (His6 tag from MH4 plasmid) (N); made in house; host or cells: Escherichia coli HK100
# Sequence (B2RXC2 640-942): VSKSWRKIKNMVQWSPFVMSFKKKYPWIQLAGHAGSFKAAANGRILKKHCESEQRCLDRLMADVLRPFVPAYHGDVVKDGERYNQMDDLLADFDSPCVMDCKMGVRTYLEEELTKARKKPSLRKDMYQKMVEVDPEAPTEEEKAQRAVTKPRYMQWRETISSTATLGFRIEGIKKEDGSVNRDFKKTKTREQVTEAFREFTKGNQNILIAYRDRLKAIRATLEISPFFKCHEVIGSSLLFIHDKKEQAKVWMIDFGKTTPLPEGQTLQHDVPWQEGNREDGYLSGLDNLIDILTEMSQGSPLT
# Procedure Details: Biochemical measurement of ITPKb activity (Kinase-Glo ATP depletion assay); inhibiting the phosphorylation of IP3 to IP4
# Set-up: species or system murine
# Details: Table 1; inhibiting the phosphorylation of IP3 to IP4; read-out: IC50
Answer in µM, number only, no unit symbol.

Enquiry: Quick one: IC50 of `C[C@@H]1CN(Cc2c[nH]nc2-c2ccnc3[nH]ccc23)CCN1c1ccc(C(F)(F)F)cn1` ?
Return: 0.478

Attention now shifts to the item below.
Enquiry: Quick one: IC50 of CC(O)CNC(=O)c1c[nH]c(-c2n[nH]cc2CN2CCN(c3ccc(C(F)(F)F)cn3)[C@H](C)C2)c1 (stereo partly shown) ?
Return: 0.014

These entries and their values trace back to patent US20110263610A1.
